System: a variety of test species
Assay: Pre-emergence herbicidal activity (glasshouse, sprayed one day after sowing, evaluated after 13 days)
Assay type: in vivo
Details: ZEAMX, application pre-emergence, rate 1000 g/Ha, scale 0-5
Listing of recorded Pre-emergence herbicidal damage score, ZEAMX by entry.
Form: value (number only, do not type unit).

// Pre-emergence herbicidal damage score, ZEAMX lookup, key: CCOCC(C)(C)c1cc(N2C(=O)C(Cl)=C(C)C2O)no1 (stereo not shown) [A34]
2

Next:
// Pre-emergence herbicidal damage score, ZEAMX lookup, key: CCCC1=C(Cl)C(=O)N(c2noc(C(C)(C)C)c2C#N)C1OC(=O)CC (stereo not shown) [A100]
3
